SYSTEM NAME: human secretin receptor (hSCTR) (human, UniProt P47872 23-440)
Sequence (P47872 23-440): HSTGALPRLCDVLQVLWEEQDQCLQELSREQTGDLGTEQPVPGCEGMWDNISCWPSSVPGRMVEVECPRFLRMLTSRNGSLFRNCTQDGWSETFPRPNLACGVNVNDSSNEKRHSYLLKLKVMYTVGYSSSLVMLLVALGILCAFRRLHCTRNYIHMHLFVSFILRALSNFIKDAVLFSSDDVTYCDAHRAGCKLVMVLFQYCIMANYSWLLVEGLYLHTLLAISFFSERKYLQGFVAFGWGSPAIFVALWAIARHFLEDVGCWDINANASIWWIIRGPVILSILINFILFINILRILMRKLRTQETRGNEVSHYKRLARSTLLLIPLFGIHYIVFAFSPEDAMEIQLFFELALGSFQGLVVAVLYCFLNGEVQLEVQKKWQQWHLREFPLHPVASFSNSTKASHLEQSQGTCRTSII
MEASUREMENT NOTES: cell-based or functional assay
Numbered stars: 1 amine (or outer) side, 2 acyl side, 3 side chain; on linkers, the order of the positions; unused ones are H or OH. Square brackets hold non-standard residues; d marks the D form. Side chains are listed from the residue outwards. Ends that are not written are not given here. * marks the point of attachment. C20 diacid = O=C(O)CCCCCCCCCCCCCCCCCCC(=O)*; γGlu = O=C(O)[C@H](CCC(=O)[*:2])N[*:1]; AEEA = NCCOCCOCC(=O)O; Aib = CC(C)(N)C(=O)O
MEASURED METRIC: pEC50 hSCTR

{"BINDER": "H[Aib]EGTFTSDVSRLK([AEEA-AEEA-γGlu-C20 diacid])EFAAQQRFLEHLV-NH2 [SEQ ID NO: 24]", "MEASURED METRIC": "pEC50 hSCTR", "ENDPOINT RESULT": "6.8 -log M"}
{"BINDER": "H[Aib]EGTFTSDVSELKELAAQQRFLEHLV-NH2 (not fully specified (residue 14)) [SEQ ID NO: 99]", "MEASURED METRIC": "pEC50 hSCTR", "ENDPOINT RESULT": "6.1 -log M"}
{"BINDER": "H[Aib]EGTFTSDVSYLK([AEEA-AEEA-γGlu-C20 diacid])EEAAAQRFLEHLV-NH2 [SEQ ID NO: 61]", "MEASURED METRIC": "pEC50 hSCTR", "ENDPOINT RESULT": "6.1 -log M"}
{"BINDER": "H[Aib]EGTFTSDVSYLKEEA[Aib][Aib]QRFLEHLV-NH2 (not fully specified (residue 14)) [SEQ ID NO: 152]", "MEASURED METRIC": "pEC50 hSCTR", "ENDPOINT RESULT": "5.4 -log M"}
{"BINDER": "H[Aib]EGTFTSDVSYLKEEA[Aib]LQRFLEFLV-NH2 (not fully specified (residue 14)) [SEQ ID NO: 133]", "MEASURED METRIC": "pEC50 hSCTR", "ENDPOINT RESULT": "6.4 -log M"}

These data points were gathered from patent US20260201008A1.
